# experimentDescription: NCI Yeast Anticancer Drug Screen. Data for the bub3 strain (AID 167)
# statedConditions: S. cerevisiae bub3 mutant strain, at 5.0 µM (retest, dose inferred, filed as 0.5), stronger effect = higher value
Compounds without any hit were thinned out: in the full panel of roughly 79,000, 15% have a hit.
Property: growth inhibition; scope: individual compounds
Only the number, expressed in %, is required.

1) CC1(O)Cc2c(O)c3c(c(O)c2CC1O)C(=O)C=CC3=O (configuration not stated) ... 1
2) C/C(=N\NC(=S)N1CCN(c2ccccn2)CC1)c1nccs1 ... 73
3) CC(C)Oc1ccc(Nc2ccccc2)cc1 ... 42
4) c1ccc(C2=NC(c3ccccc3)=NS(S3=NC(c4ccccc4)=NC(c4ccccc4)=N3)=N2)cc1 (configuration not stated) ... 30
5) O=C1C(CN2CCOCC2)CCCC1CN1CCOCC1 (configuration not stated) ... 0

What does the data say about its growth inhibition? Entry: CC(C)C1=C(O)C2=C(C(=O)C1=O)C1(C)CCCC(C)(C)C1CC2O (configuration not stated) 75

What does the data say about its growth inhibition? Entry: CCCCCCCCCCCCCCCCCC(=O)OC(Cc1ccccc1)C(=O)O (configuration not stated) 1

What does the data say about its growth inhibition? Entry: Cc1c2cc[n+](C)cc2c(C)c2c1[nH]c1ccccc12 12

What does the data say about its growth inhibition? Entry: CCCCCCCCCCCCN 56

What does the data say about its growth inhibition? Entry: OCC1OC(Sc2ncc[nH]2)C(O)C(O)C1O (configuration not stated) 0

What does the data say about its growth inhibition? Entry: Fc1ccccc1-c1ncc(-c2ccccc2)o1 24

What does the data say about its growth inhibition? Entry: C=C1CC2(CC(c3ccccc3OC)OC(c3ccccc3OC)C2)OC1=O (configuration not stated) 21

What does the data say about its growth inhibition? Entry: Nc1nc(Cl)cc(NCCCCCCCCCCNc2cc(Cl)nc(N)n2)n1 -7

What does the data say about its growth inhibition? Entry: CCOC(=O)C1=C(C(=O)c2ccc(OC)cc2)C(c2c(Cl)cccc2Cl)C(C(=O)c2ccc(OC)cc2)=C(C(=O)OCC)N1 14

What does the data say about its growth inhibition? Entry: O=Cc1cc([N+](=O)[O-])ccc1O.[Eu] 49

What does the data say about its growth inhibition? Entry: O=[N+]([O-])C(/C=C(\Cl)[N+](=O)[O-])=C(Nc1ccccc1)Nc1ccccc1 -33

What does the data say about its growth inhibition? Entry: Cc1ccc(S(=O)(=O)N/N=C2/C(=O)c3cccc4cccc2c34)cc1 0

What does the data say about its growth inhibition? Entry: CC(=O)OC(OC(C)=O)c1c2ccccc2cc2ccccc12 8

What does the data say about its growth inhibition? Entry: COc1ccc2cc(C(C)=O)c3ccccc3c2c1 -68

What does the data say about its growth inhibition? Entry: CC(C)(S)C(N)C(=O)O (configuration not stated) -9

What does the data say about its growth inhibition? Entry: c1ccc(Cc2cc3ccccc3c3ccccc23)cc1 2

What does the data say about its growth inhibition? Entry: c1cc2c3c(c1)c1cc4c(cc1c[n+]3CC2)OCO4 2

What does the data say about its growth inhibition? Entry: CN(C)C(=Nc1nc(=[N+](C)C)ss1)N(C)C 10

What does the data say about its growth inhibition? Entry: COc1ccc(Cc2ccc(O)cc2)cc1 -16
